Tested on: OVCAR-3
Details: human, OVCAR-3 ovarian tumor cells
readoutType: GI50
Hi, when you answer, please include the unit after the number. Thanks!

Exam item: # query: GI50 of entry O=C1c2ccccc2-c2c1c1ccc(Cl)cc1c(=O)n2CCCn1ccnc1
Marked response: 407 nM

###

System: SN12C
Test: NCI-60 human tumor cell line screen, renal SN12C
Settings: read-out: cytotoxicity (GI50) renal SN12C; 50% growth inhibition
readoutType: GI50 (nM)
Numbers only; they are read as nM.

Exam item: Fill in the recorded GI50 for this compound, with SN12C as test system: COc1cnc2c(c1)C(=O)c1c-2n(CCCN2CCOCC2)c(=O)c2cc([N+](=O)[O-])ccc12
Marked response: 43

With those in mind, consider the next compound.
Exam item: Fill in the recorded GI50 for this compound, with SN12C as test system: O=C1c2ccccc2-c2c1c1ccc([N+](=O)[O-])cc1c(=O)n2CCCn1ccnc1
Marked response: 15
